Tested on: OVCAR-5 ovarian
Test: NCI tumour cell line growth inhibition, 48 h
Measurement Type: GI50

Prompt: Report its GI50 with OVCAR-5 ovarian as the test system: O=[N+]([O-])[O][Sn]([O][Sn]([O][N+](=O)[O-])([c]1ccccc1)[c]1ccccc1)([c]1ccccc1)[c]1ccccc1
Response: > 100 µM

Prompt: Report its GI50 with OVCAR-5 ovarian as the test system: COc1ccc(C(=O)NCCNc2nccc(-c3c(-c4ccc(F)cc4)nc4sccn34)n2)cc1
Response: 39 µM

Prompt: Report its GI50 with OVCAR-5 ovarian as the test system: Nc1ncc2ccc3c(ccn3C3CC(O)C(CO)O3)c2n1 (stereo not drawn)
Response: > 100 µM

// data source = PubChem BioAssay (NCI)
